Source listed as PubChem BioAssay (NCI).

# TGI values compiled below
- System: SK-OV-3 ovarian
- method: NCI tumour cell line growth inhibition, 48 h
Where a SMILES comes first, the peptide text is derived from it. [ ]: non-standard residue; d: D form. The star is where a group is joined. hSer = N[CH](CCO)C(=O)O; Boc = CC(C)(C)OC(=O)*

Some solved cases for reference:
compound | TGI
COCCC(NC(=O)C(CC(C)C)NC(=O)OC(C)(C)C)C(N)=O (stereo not drawn) (Boc-Leu-[hSer](Me)-NH2; configuration not given here) | > 100 µM
Cc1cc(-c2ccc(C(=O)C(Cl)(Cl)Cl)[nH]2)on1 | > 100 µM
COc1ccc2c(O)c3[n+](cc2c1OC)CCc1cc2c(cc1-3)OCO2 | > 100 µM
COC(=O)C1Cc2c(C)cccc2C1=O (stereo not given) | > 100 µM
Cc1cccc(C)c1NC(=O)CCC(=O)NNC(=O)c1cc(O)c2ccccc2c1 | > 100 µM

Challenge: Quick check: TGI of Cn1ncc2c(Nc3ccc(Br)cc3)nc(Nc3ccc(Br)cc3)nc21 ?
Response given: 23.5 µM

Challenge: What value of measured TGI is listed for CCOC(=O)C1NCCc2c1[nH]c1ccccc21 (stereo not given) ?
Response given: > 10 µM

Challenge: Give the measured TGI of C1=C2SSC3=CC=C(SSc4ccc(s4)SSC4=CC=C(SSC(=C1)S2)S4)S3 .
Response given: > 100 µM

Challenge: For the compound COC(=O)C(=O)C(C(=O)C(=O)Nc1ccccc1C(=O)OC)c1nc2ccc(C(=O)c3ccccc3)cc2[nH]c1=O (stereo not given) , what TGI is on record?
Response given: > 100 µM

Challenge: # query: TGI of entry C/C(=N\Nc1nc2cc(C)ccc2s1)c1ccccn1
Response given: 43.1 µM

* * *

- System: SF-539 CNS
- method: NCI tumour cell line growth inhibition, 48 h
molecules and their reported TGI

Here are 5 molecules together with their reported answers.
molecule | TGI
COc1cc2c(cc1O)[C@H](C)C(c1ccc(Cl)cc1)O2 (stereo partly specified) | > 100 µM
CC(C)C1CN1CC(O)Cn1ccnc1[N+](=O)[O-] (stereo unspecified) | > 100 µM
CCOC(=O)C(NCc1ccccc1)(NC(=O)c1ccccc1)C(F)(F)F (stereo unspecified) | > 100 µM
CCOc1ccc(NC(=O)Nc2cc(C(C)C)ccc2C)cc1 | 16.6 µM
N=C(N)/N=C(/C=C/c1ccccc1)CC1OC(=O)c2ccccc21 (stereo unspecified) | > 100 µM

Challenge: Fill in: TGI of Cc1ncc([N+](=O)[O-])n1CCN(C)CCCCn1ccnc1[N+](=O)[O-] is ___
Response given: > 100 µM

Challenge: Form field: reported TGI of CC(C)CN1CN(c2ccccc2)C2(CCN(CC(C)(c3ccc(F)cc3)C3OCCO3)CC2)C1=O (stereo unspecified)
Response given: 18.2 µM

Challenge: # TGI lookup, item COc1ccc(CNc2cc(OC)cc(OC)c2)cc1
Response given: > 100 µM

Challenge: Suppose we examine the molecule CSc1n[nH]c(N)c1C(=O)Nc1ccc(Cl)cc1 ; what TGI value has been reported?
Response given: > 100 µM

Challenge: What value of TGI has been reported for the following molecule? COc1ccc2c(O)c3[n+](cc2c1OC)CCc1cc2c(cc1-3)OCO2
Response given: > 100 µM

Challenge: Return reported TGI; argument: CC1OCC2OC(C)OC(C3C4=C(CC(C)(C)CC4=O)OC4=C3C(=O)CC(C)(C)C4)C2O1 (stereo unspecified)
Response given: > 100 µM

* * *

- System: T-47D breast
- method: NCI tumour cell line growth inhibition, 48 h
measurementKind: TGI

Consider the reported TGI for these compounds:
compound | reportedResult
CCOC(=O)C(NCc1ccccc1)(NC(=O)c1ccccc1)C(F)(F)F (stereo not drawn) | > 100 µM
c1cc(-c2cscc2-c2ccsc2)cs1 | > 100 µM
C=CC1CC12C(=O)C1OC2(C)C2C(=O)c3ccccc3C(=O)C12 (stereo not drawn) | > 100 µM
O=[N+]([O-])/C(C(Cl)=C(Cl)Cl)=C1\Nc2ccccc2O1 | > 100 µM
COC1/C=C\C=C(/C)C(=O)NC2=CC(=O)C(NCCCl)=C(CC(C)CC(OC)C(O)C(C)/C=C(/C)C1OC(N)=O)C2=O (stereo not drawn) | 20.4 µM
CCOC(=O)c1ccc(NC2Oc3cc4c(cc3C(c3cc(OC)c(OC)c(OC)c3)C2C)OCO4)cc1 (stereo not drawn) | > 100 µM

Challenge: Return reported TGI; argument: O=C1Nc2ccc(Cl)cc2/C1=C\c1c(-c2ccc(F)cc2)nc2ccccn12
Response given: 19.6 µM

Challenge: What does the data say about its TGI? Entry: COc1ccc2c(c1)Oc1nc(N)c(C#N)c(N)c1C2Sc1ccc(SC)cc1 (stereo not drawn)
Response given: 4.91 µM

Challenge: Recorded TGI of COc1ccc(C2SCC(=O)N2N=C2NC(=O)CC(=O)N2)cc1 (stereo not drawn) , please.
Response given: > 100 µM

Challenge: Which value of TGI has been reported for COc1ccc(C(=O)C2CC3(CCC2(O)c2ccc(OC)cc2)CC(=O)Nc2ccccc2C3=O)cc1 (stereo not drawn) in the records?
Response given: > 100 µM

Challenge: Give its TGI value. Item: CC1OCC2OC(C)OC(C3C4=C(CC(C)(C)CC4=O)OC4=C3C(=O)CC(C)(C)C4)C2O1 (stereo not drawn)
Response given: > 100 µM

Challenge: Suppose we examine the compound N/C(CC/C(N)=N\O)=N\O ; what TGI value has been reported?
Response given: > 100 µM

Challenge: Could you share which TGI value was measured for CCOc1ncn(-c2ccc(NC(=S)Nc3cccc(O)c3)cc2)n1 ?
Response given: > 100 µM

* * *

- System: U251 CNS
Permitted responses: active, inactive

compound | classification
COc1ccc2c(c1)O/C(=C\c1cccc(OCC(=O)Nc3nc4ccccc4s3)c1)C2=O | inactive
COc1ccc2c(c1)Oc1nc(N)c(C#N)c(N)c1C2Sc1ccc(SC)cc1 (stereo not given) | inactive
CN(C(=O)C1CCCCC1)c1ccccc1I(=O)=O | inactive

Next up:
Challenge: Lab log entry: OCC1SC(n2cnc3cncnc32)C(O)C1O (stereo not given) — outcome as called in the assay?
Response given: inactive

* * *

- System: MDA-N
- method: NCI tumour cell line growth inhibition, 48 h
TGI by entry:

compound | systemName | TGI
COC(=O)OC[C@H]1O[C@@H](n2cc(C)c(=O)[nH]c2=O)CC1OC(=O)OC (stereo partly specified) | MDA-N | > 100 µM
COC(=O)c1ccc(CN2CCc3c([nH]c4ccccc34)C2CO)o1 (stereo unspecified) | MDA-N | > 10 µM
CCOC(=O)C(NCc1ccccc1)(NC(=O)c1ccccc1)C(F)(F)F (stereo unspecified) | MDA-N | > 100 µM
Cc1oc2ccccc2c(=O)c1Cn1nnc2ccccc21 | MDA-N | > 100 µM
COc1ccc(OC)c(/C=C/[N+](=O)[O-])c1 | MDA-N | 25.3 µM

Challenge: For CC1(C)CCc2c(cc3c(c2O)CCC(C)(C)O3)O1 , what is its reported TGI?
Response given: > 100 µM

* * *

Readings of TGI for the listed compounds
- Tested on: M14 melanoma
- method: NCI tumour cell line growth inhibition, 48 h

compound | systemName | TGI
CC(C)C1CN1CC(O)Cn1ccnc1[N+](=O)[O-] (stereo not drawn) | M14 melanoma | > 100 µM

Challenge: Item CS(=O)(=O)c1nccc(-c2c(-c3cccc(OCc4ccc(F)cc4)c3)nc3sccn23)n1 with M14 melanoma - TGI?
Response given: > 100 µM

Challenge: Lookup: TGI / M14 melanoma / COCCNCC(O)Cn1c2ccc(Cl)cc2c2cc(Cl)ccc21 (stereo not drawn)
Response given: 4.16 µM

Challenge: // map CCCCN(CC)C(=O)C(=O)C1C(=O)Nc2ccccc2S1=O (stereo not drawn) to recorded TGI (system: M14 melanoma)
Response given: > 100 µM

Challenge: Identify the measured TGI of CCOC(=O)NNC(=O)NCCNC(=O)NNC(=O)OCC for M14 melanoma.
Response given: > 100 µM

Challenge: Hello, I am looking for reported TGI with M14 melanoma for C=C1C(=O)O[C@@H]2C[C@]3(C)[C@@H](C[C@H]12)[C@](C)(O)CC[C@@H]3O . Could you help?
Response given: > 100 µM

Challenge: TGI of COc1ccc(-n2c(CCCC(=O)O)nc3c2C(=O)c2ccccc2C3=O)cc1 on M14 melanoma?
Response given: 39 µM

Challenge: M14 melanoma / TGI / CC(C)(C)C1CC[C@H]2c3c([nH]c4ccc(Br)cc34)[C@H]3C(=O)N(c4ccccc4)C(=O)[C@H]3[C@H]2C1 (stereo partly drawn) : value?
Response given: > 100 µM

* * *

- Test system: SNB-75 CNS
- method: NCI tumour cell line growth inhibition, 48 h
TGI: recorded values
Your answer should be a plain number; it is taken to be in µM.

Recorded TGI, per entry:
compound | systemName | reportedResult
Brc1c[n+](Cc2ccc3ccccc3c2)cn1Cc1ccc2ccccc2c1 | SNB-75 CNS | 3.03
O=C1C=C(SCCO)C(=O)c2ccccc21 | SNB-75 CNS | 2.68
Fc1cccc(F)c1C1SCC2=Nc3ccccc3CN21 (stereo unspecified) | SNB-75 CNS | 81.8
c1ccc(COc2ccc(C[P+](c3ccccc3)(c3ccccc3)c3ccccc3)cc2)cc1 | SNB-75 CNS | 2.99

Challenge: // returns reported TGI for input CC1=C/C(=C(\c2ccc(N(C)C)cc2)c2ccc([N+](C)(C)C)cc2)C=CC1=[N+](C)C
Response given: 10.6
